# systemName: HPV35 E6 phospho-PBM peptide p35E6 (human papillomavirus type 35)
# experimentDescription: FP
readoutType: Kd (µM)
Give bare numbers, in µM.

## Task Return the recorded Kd value; entry: full-length human 14-3-3ζ fused to the C terminus of MBP (natural protein) MDKNELVQKAKLAEQAERYDDMAACMKSVTEQGAELSNEERNLLSVAYKNVVGARRSSWRVVSSIEQKTEGAEKKQQMAREYREKIETELRDICNDVLSLLEKFLIPNASQAESKVFYLKMKGDYYRYLAEVAAGDDKKGIVDQSQQAYQEAFEISKKEMQPTHPIRLGLALNFSVFYYEILNSPEKACSLAKTAFDEAIAELDTLSEESYKDSTLIMQLLRDNLTLWTSDTQGDEAEAGEGGEN
## Result 191

// provenance: paper PMC7961048
